# experimental_target: chemokine receptor 1 (CCR1) (UniProt P56482 1-355)
# Sequence (P56482 whole entry): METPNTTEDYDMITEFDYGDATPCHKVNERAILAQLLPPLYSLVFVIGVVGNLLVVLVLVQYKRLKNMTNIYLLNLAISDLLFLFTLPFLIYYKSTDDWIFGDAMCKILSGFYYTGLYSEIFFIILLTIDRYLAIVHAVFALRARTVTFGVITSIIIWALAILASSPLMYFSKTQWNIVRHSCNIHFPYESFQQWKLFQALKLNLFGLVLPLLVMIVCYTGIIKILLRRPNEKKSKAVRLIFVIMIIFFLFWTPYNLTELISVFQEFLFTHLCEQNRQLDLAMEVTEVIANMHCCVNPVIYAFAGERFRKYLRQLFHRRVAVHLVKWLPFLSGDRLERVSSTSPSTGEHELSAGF
# assay_protocol: radioligand competition binding on CCR1
assay_endpoint: Ki (nM)

>>> numeric_value("full size HCC-1 (HCC-1, residues 1-74) (ligand, The 74-residue chemokine, Mr 8673; also called full-length HCC-1; HCC-1, 1-74) TKTESSSRGPYHPSECCFTYTTYKIPRQRIMDYYETNSQCSKPGIVFITKRGHSVCTNPSDKWVQDYIKDMKEN")
100
